- systemUnderTest: T1, SNTG2, Q9NY99
- T1 sequence (Q9NY99 68-166, limits assumed, looked up): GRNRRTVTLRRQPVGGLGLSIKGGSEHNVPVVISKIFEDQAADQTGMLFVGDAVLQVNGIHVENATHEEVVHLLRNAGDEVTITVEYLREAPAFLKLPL
- experimentNotes: holdup assay
- Set-up: key: below the threshold = too weak to quantify, mostly under pKd 3.1 to 4
- reportedConditions: plain residues with an end cap or a label only (N-terminal biotin on a linker: ttds)
Decision: pKd >= 4 yields 1, all other cases yield -1.

Enquiry: Check the entry GRLLGLETNV [ARHGEF26, Q96DR7] : does pKd equal or exceed 4?
Return: 1

Enquiry: Quick check, pKd >= 4? SGGKRKETLV [NET1, Q7Z628]
Return: 1

Enquiry: Is pKd at least 4? Consider QRPYRRESEI [KCNJ12, Q14500]
Return: -1

Enquiry: Determine whether measured pKd meets or exceeds 4 for NPDALPETLV [ARHGAP6, O43182]
Return: 1

Enquiry: Decide: pKd of FVETQHQTQV [FAT3, Q8TDW7] >= 4?
Return: -1

Enquiry: // inclusive: pKd at least 4? input: SSIDLWETAL [SLC15A5, A6NIM6]
Return: 1

Enquiry: Hi, just wondering whether PSRDRKETSI [RALBP1, Q15311] shows pKd of 4 or higher.
Return: 1

Enquiry: Is it the case that GARVSKETPL [MAPK12, P53778] has pKd reaching or exceeding 4?
Return: 1

Enquiry: For this binder, is measured pKd 4 or higher? SRSRRRETAL [HPV33-E6, P06427]
Return: 1
